Taken from the supplement of paper PMC10037445.

- System: RAW-Dual
- MEASUREMENT_PROTOCOL: NF-kB SEAP reporter activity, fold change vs agonist alone; cytotoxicity flag (confluency mask): cytotoxic (confluency <70% of control); higher = enhanced NF-kB activity
- CONDITION_DESCRIPTION: agonist: LPS (TLR4) 0.1 ug/mL
Over roughly 2,900 compounds, “NF-kB SEAP reporter activity, fold change vs agonist alone” has its median near 0.99; the highest 2% begin near 2.6. Many of the other results were omitted from the sample, so the highest values are more common in it than they were.
Could you please report measured NF-kB SEAP reporter activity for the items listed next?
# print the numeric value only

Problem: Give the reported NF-kB SEAP reporter activity for Cc1[nH]c2ccccc2c1CCNCc1ccc(/C=C/C(=O)NO)cc1 (library stock concentration (final ~1000-fold dilution): 10 mM) (system: RAW-Dual).
Result: 4.6

Problem: Again, but for CCC1(O)CC2CN(CCc3c([nH]c4ccccc34)C(C(=O)OC)(c3cc4c(cc3OC)N(C)C3C(O)(C(=O)OC)C(OC(C)=O)C5(CC)C=CCN6CCC43C65)C2)C1.O=S(=O)(O)O (stereo unspecified) (library stock concentration (final ~1000-fold dilution): 10 mM)
Result: 5.91

Problem: Repeat with CN(C)CCC=C1c2ccccc2C(C)(C)c2ccccc21.Cl (library stock concentration (final ~1000-fold dilution): 10 mM)
Result: 1.45

Problem: Another compound to look at: CC1OC(OC2CCC3(C)C(CCC4(C)C3C=CC35OCC6(CCC(C)(C)CC63)C(O)CC45C)C2(C)CO)C(O)C(OC2OC(CO)C(O)C(O)C2O)C1O (stereo unspecified) (library stock concentration (final ~1000-fold dilution): 10 mM)
Result: 0.221

Problem: Please do the same for Cc1cc2c(C(N)=O)cccc2n1-c1nc2c(c(NCc3ccccc3)n1)COCC2 (library stock concentration (final ~1000-fold dilution): 10 mM) as well.
Result: 0.298

Problem: Lookup COS(=O)(=O)[O-].COc1cccc2c1nc1ccccc1[n+]2C (library stock concentration (final ~1000-fold dilution): 10 mM)
Result: 0.473

Problem: Also need Cl.Nc1ncccc1-c1nc2ccc(-c3ccccc3)nc2n1-c1ccc(C2(N)CCC2)cc1 (library stock concentration (final ~1000-fold dilution): 10 mM) , thanks.
Result: 0.954

Problem: # repeat for COc1cc(NS(C)(=O)=O)ccc1Nc1c2ccccc2nc2ccccc12.Cl (library stock concentration (final ~1000-fold dilution): 10 mM)
Result: 2.6

Problem: Follow-up entry: CC(C)COCC(CN(Cc1ccccc1)c1ccccc1)N1CCCC1.Cl.O (stereo unspecified) (library stock concentration (final ~1000-fold dilution): 10 mM)
Result: 0.71

Problem: Another compound to look at: CN1CCN(Cc2ccc(Nc3ncc(Cl)c(Nc4ccccc4S(=O)(=O)N(C)C)n3)cc2)CC1 (library stock concentration (final ~1000-fold dilution): 2 mM)
Result: 0.331

Problem: And what about the compound COc1cc2nccc(Oc3ccc(NC(=O)Nc4ccc(F)cc4F)c(F)c3)c2cc1OC (library stock concentration (final ~1000-fold dilution): 10 mM) ?
Result: 0.806
